Exercise: state measured TGI for each of the molecules provided.
Tested on: HOP-62 NSCLC
Test: NCI tumour cell line growth inhibition, 48 h

Solved entries (count: 6):
                                   molecule           tgt  endpoint  endpoint_value
0  CC12CCC(C(=O)OC1=O)C(C)(C)O2 (stereo not given)  HOP-62 NSCLC       TGI        > 100 µM
1  O=C(c1ccccc1)c1ccc(COc2ccc(C(c3c(O)c4ccccc4oc3=O)c3c(O)c4ccccc4oc3=O)cc2)cc1  HOP-62 NSCLC       TGI         47.4 µM
2  CCCN(C(=O)c1c(Cl)nnc(Cl)c1C(=O)c1cc(Cl)nnc1Cl)c1cc(Cl)nnc1Cl  HOP-62 NSCLC       TGI         48.8 µM
3  CC(=O)C1=CSC2[C@H](NC(=O)Cc3ccccc3)C(=O)N2C1C(=O)OC(c1ccccc1)c1ccccc1 (stereo not given in full)  HOP-62 NSCLC       TGI        > 100 µM
4  COc1cc(C(=O)C/C(CCC(=O)Nc2ccccc2[N+](=O)[O-])=N\NC(=O)CC#N)ccc1O  HOP-62 NSCLC       TGI        > 100 µM
5  CC(C)CC(CC1=CCC2CC1C2(C)C)C1=C(O)C(C)(C)C(=O)C(C)(C)C1=O (stereo not given)  HOP-62 NSCLC       TGI         1.14 µM

// input: 4 molecules below; output: TGI for each
1. O=c1oc2ccccc2cc1/C=N/N1C(=S)N(c2ccccc2)C(=Nc2ccccc2)C1=Nc1ccccc1
2. O=C(NNC1=NCCN1)c1ccco1
3. CCCCCCc1cc(C(=O)Nc2cccc(C(F)(F)F)c2)nc(N)n1
4. C[C@]12CCC3[C@@H](CC[C@@H]4c5nonc5CC[C@]34C)C1CCC(=O)N2 (stereo not given in full)

["> 100 µM", "> 100 µM", "> 100 µM", "> 100 µM"]

###

Tested on: NCI/ADR-RES ovarian
Assay: NCI tumour cell line growth inhibition, 48 h
Endpoint: TGI (µM)
Answers are plain numbers, in µM.

In [3]: df
Out[3]:
                                   compound                  tgt  endpoint_value
0  CNC(=O)OCc1c(COC(=O)NC)c(C)n(-c2ccc(Br)cc2)c1C  NCI/ADR-RES ovarian            34.9
1  C[C@]12CC[C@H]3[C@@H](CCC4=CC(=O)CC[C@@H]43)[C@@H]1CC[C@@H]2OC(=O)CCc1ccccc1  NCI/ADR-RES ovarian            40.9
2   COc1cc2nc(N3CCCC3)nc(NCC3CCCCC3)c2cc1OC  NCI/ADR-RES ovarian            3.47
3  COC(=O)C(Cc1ccccc1)NC(=O)NC(=O)NC(=O)CI (configuration not stated)  NCI/ADR-RES ovarian            84.3
4  Cn1c2c(cc(S(=O)(=O)c3ccccc3)c1=O)CCc1c-2cnn1-c1ccc(Cl)cc1  NCI/ADR-RES ovarian            8.94

// input: 6 compounds below; output: TGI for each
1. NC(=O)NN=C(CS)CS
2. CN(C)CCNC(=O)c1cccc2c(NCC(=O)O)c3ccccc3nc12
3. CC(C)(C)c1ccc(OCCCCCCN2CCNCC2)cc1
4. CCCN(C(=O)c1c(Cl)nnc(Cl)c1C(=O)c1cc(Cl)nnc1Cl)c1cc(Cl)nnc1Cl
5. CCC(NC(C)c1ccccc1)C(O)c1ccc(OCc2ccccc2)c(OCc2ccccc2)c1 (configuration not stated)
6. COc1cccc(/C=C2/Sc3scc(-c4ccccc4)[n+]3C2=O)c1O

[71.9, 48.2, 33.7, 69.1, 30.6, 42.3]

// input: 2 compounds below; output: TGI for each
1. O=C(c1ccccc1)C(CN1CCOCC1)c1ccccc1 (configuration not stated)
2. Cc1cc(=O)[nH]c(NN2C(Cl)C(=O)C2c2ccc(Cl)cc2)n1 (configuration not stated)

[14.1, 54.9]

###

Tested on: OVCAR-3 ovarian
Experiment: NCI tumour cell line growth inhibition, 48 h
Endpoint: GI50

Solved entries (count: 2):
In [3]: df
Out[3]:
                                   compound  endpoint_value
0  Cc1cc(N/N=C/c2nc(-c3ccc(Br)cc3)oc2C)c2cc(Cl)ccc2n1        > 100 µM
1  COc1ccc(-c2cc(-c3ccccc3)nc(SCCCC(=O)NO)n2)cc1          1.2 µM

// input: 3 compounds below; output: GI50 for each
1. CN1CCN(Cc2ccc(NC(=O)c3cncc(C#Cc4cnc(N)c5ccncc45)c3)cc2C(F)(F)F)CC1
2. CC(=O)C(O)N1C(=O)C=CC1=O (stereo not given)
3. O=C1c2c(c3c4ccccc4[nH]c3c3ccc4ccccc4c23)C(=O)N1CCN1CCCCC1

1.53 µM
11600 µM
1.99 µM

###

System: SK-MEL-2 melanoma
Assay: NCI tumour cell line growth inhibition, 48 h
Exercise: state measured TGI for each of the compounds provided.
Give bare numbers, in µM.

Compound	TGI (µM)
COc1ccc(NC2Oc3cc4c(cc3C(c3cccc(OC)c3OC)C2C)OCO4)cc1 (centres undefined)	70.2
O=C(c1ccccc1)c1ccc(COc2ccc(C(c3c(O)c4ccccc4oc3=O)c3c(O)c4ccccc4oc3=O)cc2)cc1	34.9
CCOC(=O)C1=C(NC)OC/C1=N\NC(=O)c1ccccc1O	48.2

Now turn to the next compound.
Recorded TGI for CC1C(O)C2(Oc3cc4c(c5c3[C@@H](CC5O)[C@H]2C)CCC2Cc3nc5c(nc3C[C@@]42C)CC2CCC3C4=C[C@H]6O[C@@]7(O[C@@](C)(CO)C[C@@H]7O)C(C)[C@@]6(O)[C@]4(C)[C@@H](O)CC3[C@]2(C)C5)OC1(C)C (some centres undefined) , please?
0.611

###

Test system: M14 melanoma
Experiment: NCI tumour cell line growth inhibition, 48 h
Endpoint: TGI

Solved entries (count: 2):
>>> print(df.to_string())
                                   compound  endpoint_value
0  COC(=O)[C@@H]1CN(C(=O)CCc2ccccc2)C(=O)N1C(=O)OCc1ccccc1        > 100 µM
1  O=C1c2ccccc2-c2c1c1ccc([N+](=O)[O-])cc1c(=O)n2CCCBr        > 100 µM

// input: 4 compounds below; output: TGI for each
1. O=c1ccc2cc(O)c(O)cc2o1
2. COC(=O)C1C(OC(=O)c2ccccc2)CC2CCC1N2C(N)=O (stereo unspecified)
3. O=S(=O)(Sc1ccc(Cl)cc1)c1ccc(Cl)cc1
4. Cc1cc(=O)[nH]c(NN2C(Cl)C(=O)C2c2ccc(Cl)cc2)n1 (stereo unspecified)

1: > 100 µM; 2: > 100 µM; 3: 32.5 µM; 4: 28.9 µM

###

Test system: CCRF-CEM leukemia
Test: NCI tumour cell line growth inhibition, 48 h
Endpoint: TGI

Solved entries (count: 4):
                                   compound  endpoint_value
0     O=[N+]([O-])/C=C1\COCc2cc3c(cc21)OCO3         39.1 µM
1  N#CC(C#N)=Cc1ccc2c(c1)OC(Cl)O2 (stereo not given)        > 100 µM
2       Cc1n[nH]c(=O)c2cc(-c3ccccc3)[nH]c12        > 100 µM
3  CC(=O)OCC(OC(C)=O)C(OC(C)=O)C(C=NN(C(C)=O)S(=O)(=O)c1ccc(/C=C2\NC(=O)NC2=O)cc1)OC(C)=O (stereo not given)        > 100 µM

Now turn to the next compound.
Recorded TGI for C=CCOC1OC(CO[Si](C)(C)C(C)(C)C)C(OCc2ccccc2)C(OCc2ccccc2)C1OCc1ccccc1 (stereo not given) , please?
> 100 µM

###

Test system: U251 CNS
Assay: NCI tumour cell line growth inhibition, 48 h
Exercise: state measured TGI for each of the compounds provided.

Solved entries (count: 3):
In [3]: df
Out[3]:
                           molecular_string  endpoint  endpoint_value
0  O=C(CN1CCNCCN(CC(=O)N2CCCCC2)CCNCC1)N1CCCCC1       TGI        > 100 µM
1  O=C(c1ccccc1)c1ccc(COc2ccc(C(c3c(O)c4ccccc4oc3=O)c3c(O)c4ccccc4oc3=O)cc2)cc1       TGI        > 100 µM
2  C=CC(=O)N1CCN(c2ccc3cccc(NC(=O)c4cnc(C)cn4)c3n2)CC1       TGI         36.4 µM

// input: 7 compounds below; output: TGI for each
1. CC1=C2C(=O)c3ccccc3C(=O)[C@H]2[C@H]2CCO[C@H]2O1
2. CC(C)(C)c1n[nH]c(=S)n(/N=C/c2ccc(F)c(Oc3ccccc3)c2)c1=O
3. O=c1oc2ccccc2cc1/C=N/N1C(=S)N(c2ccccc2)C(=Nc2ccccc2)C1=Nc1ccccc1
4. Cc1c(/C=N/NC(=S)Nc2ccccc2Cl)c(=O)n(-c2ccccc2)n1C
5. NC(N)=N/N=C/c1c(-c2ccccc2)nc2n1ccc1nc(-c3ccccc3)c(/C=N/N=C(N)N)n12
6. O=C(NCc1cccnc1)NCc1cccnc1
7. CCOC(=O)C1=C(NC)OC/C1=N\NC(=O)c1ccccc1O

1. 59.3 µM
2. > 100 µM
3. > 100 µM
4. > 100 µM
5. > 100 µM
6. > 100 µM
7. > 100 µM
